# test-details: Leishmania donovani infected macrophage assay
# Type: cell-based
# details: mouse, J774A.1 cytotoxicity / L. donovani activity; read-out: selectivity index (SI, mammalian cytotoxicity/antiprotozoal activity)
endpoint: selectivity ratio
Output: the number by itself.

The compound listed as COC(=O)[C@H](C)c1c([C@@]2(C)CCCC(C)(C)C2)ccc2c1C(=O)OC2 [Membranolide (5), membranolide] has a reported selectivity ratio of 8

###

# Tested on: primary human hepatocytes
# test-details: Cytotoxicity towards uninfected primary human hepatocytes
# Format: cell-based
# details: Hepatocyte; 5 μg/mL; uninfected primary human hepatocytes; % (Standard Deviation), n = 3; read-out: Plasmodium falciparum Inhibition at 5 μg/mL Uninfected PHHs
We use 3% as the dividing line for inhibition at 5 µg/mL: on or above the line is 1.0, below is 0.0.

Quick check, inhibition at 5 µg/mL >= 3%? CC(=O)O[C@@H]1O[C@H](OC(C)=O)[C@@H]2[C@H]1CC[C@H](/C(C)=C1/CCCC1(C)C)C2(C)C 0.0

Quick check, inhibition at 5 µg/mL >= 3%? C/C=C1/[C@@H]2[C@@H](OC(C)=O)O[C@@H](OC(C)=O)[C@@H]2CC[C@@H]1[C@@]1(C)CCCC(C)(C)C1 [9,11-Dihydrogracilin A (3), 9,11-dihydrogracilin A] 0.0

Quick check, inhibition at 5 µg/mL >= 3%? CC(=O)OC1OC(OC(C)=O)C2C1CCC(C1(C)CCCC(C)(C)C1)C21OC1C (centres unmarked) 0.0

Quick check, inhibition at 5 µg/mL >= 3%? COc1cc(NC(C)CCCN)c2ncccc2c1 (centres unmarked) [Primaquine, primaquine, reference compound] 0.0

Quick check, inhibition at 5 µg/mL >= 3%? CCC1=C(C=O)[C@H](C(=O)OC)CC[C@@H]1[C@@]1(C)CCCC(C)(C)C1 (relative stereo) 1.0

Quick check, inhibition at 5 µg/mL >= 3%? CC(=O)O[C@@H]1OC2OC(=O)[C@H](C)C34OOC([C@@]5(C)CCCC(C)(C)C5)(CC[C@@H]1C23)O4 (some centres unmarked) [Ozonide (14), tetrahydroaplysulphurin ozonide] 1.0

Quick check, inhibition at 5 µg/mL >= 3%? C[C@@H](CO)c1c([C@@]2(C)CCCC(C)(C)C2)ccc(CO)c1CO 0.0

###

Please respond with reported inhibition at 5 µg/mL for every item in the list.
# Test system: primary human hepatocytes
# test-details: Cytotoxicity towards uninfected primary human hepatocytes
# Format: cell-based
# details: Hepatocyte; 5 μg/mL; uninfected primary human hepatocytes; % (Standard Deviation), n = 3; read-out: Plasmodium falciparum Inhibition at 5 μg/mL Uninfected PHHs
Express it in %; write the number only.

The compound listed as C[C@H]1C(=O)O[C@@H]2OC[C@@H]3CCC([C@@]4(C)CCCC(C)(C)C4)=C1[C@@H]32 [Cadlinolide C (8), cadlinolide C] has a reported inhibition at 5 µg/mL of 0

The compound listed as CC(=O)O[C@@H]1O[C@H]2OC(=O)[C@H](C)c3c([C@@]4(C)CCCC(C)(C)C4)ccc1c32 [Aplysulphurin (2), aplysulphurin] has a reported inhibition at 5 µg/mL of 7.6

The compound listed as COC(=O)C(C)c1c(C2(C)CCCC(C)(C)C2)ccc2c1C(O)OC2=O (stereo not drawn) [Dendrillin B (10), dendrillin B] has a reported inhibition at 5 µg/mL of 0

The compound listed as C/C(=C1\CCCC1(C)C)[C@H]1CC[C@H]2C(=O)OC[C@H]2C1(C)C [Glaciolide (6), glaciolide] has a reported inhibition at 5 µg/mL of 4.5

The compound listed as COC(=O)[C@H](C)c1c([C@@]2(C)CCCC(C)(C)C2)ccc2c1C(=O)OC2 [Membranolide (5), membranolide] has a reported inhibition at 5 µg/mL of 0

The compound listed as CC(=O)OC1OC(OC(C)=O)C2C(=O)C(C3(C)CCCC(C)(C)C3)CCC12 (stereo not drawn) [8-Ketodihydrogracilin (13), 8-ketodihydrogracilin] has a reported inhibition at 5 µg/mL of 2.3
